Reference for the values: paper doi:10.1101/2022.09.08.507076v2

TARGET_OF_ASSAY: CYP1A2 (Homo sapiens, UniProt P05177)
Sequence (P05177 2-516): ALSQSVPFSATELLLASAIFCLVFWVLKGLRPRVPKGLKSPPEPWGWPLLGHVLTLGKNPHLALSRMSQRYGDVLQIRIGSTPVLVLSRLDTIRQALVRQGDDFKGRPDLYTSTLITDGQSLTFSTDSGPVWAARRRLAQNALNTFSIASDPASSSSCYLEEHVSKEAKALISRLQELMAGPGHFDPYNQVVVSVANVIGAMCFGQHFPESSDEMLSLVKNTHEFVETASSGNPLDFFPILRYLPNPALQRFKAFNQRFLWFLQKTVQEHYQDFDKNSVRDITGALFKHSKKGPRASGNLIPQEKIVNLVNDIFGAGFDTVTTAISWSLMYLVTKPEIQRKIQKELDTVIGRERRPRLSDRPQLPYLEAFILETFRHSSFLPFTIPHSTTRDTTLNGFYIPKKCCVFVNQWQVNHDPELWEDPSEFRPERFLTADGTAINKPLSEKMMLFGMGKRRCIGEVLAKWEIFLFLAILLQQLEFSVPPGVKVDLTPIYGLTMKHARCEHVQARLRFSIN
PROCEDURE_DETAILS: recombinant CYP inhibition, fluorescence
Type: biochemical
Item-by-item account of IC50

[
  {
    "MOLECULAR_STRING": "CCNC(=O)Nc1nc2c(F)c(-c3ccc(COP(=O)(O)O)nc3)cc(-c3ccccn3)c2s1",
    "TARGET_OF_ASSAY": "CYP1A2 (Homo sapiens, UniProt P05177)",
    "IC50": "> 10 µM"
  }
]

[in] # query: IC50 | item CCNC(=O)Nc1nc2c(F)c(-c3cnc(N4CCC(C(=O)O)CC4)nc3)cc(-c3ccccn3)c2s1 | system: CYP1A2 (Homo sapiens, UniProt P05177)
[out] > 10 µM

---

TARGET_OF_ASSAY: CYP2D6 (Homo sapiens, UniProt P10635)
Sequence (P10635 whole entry): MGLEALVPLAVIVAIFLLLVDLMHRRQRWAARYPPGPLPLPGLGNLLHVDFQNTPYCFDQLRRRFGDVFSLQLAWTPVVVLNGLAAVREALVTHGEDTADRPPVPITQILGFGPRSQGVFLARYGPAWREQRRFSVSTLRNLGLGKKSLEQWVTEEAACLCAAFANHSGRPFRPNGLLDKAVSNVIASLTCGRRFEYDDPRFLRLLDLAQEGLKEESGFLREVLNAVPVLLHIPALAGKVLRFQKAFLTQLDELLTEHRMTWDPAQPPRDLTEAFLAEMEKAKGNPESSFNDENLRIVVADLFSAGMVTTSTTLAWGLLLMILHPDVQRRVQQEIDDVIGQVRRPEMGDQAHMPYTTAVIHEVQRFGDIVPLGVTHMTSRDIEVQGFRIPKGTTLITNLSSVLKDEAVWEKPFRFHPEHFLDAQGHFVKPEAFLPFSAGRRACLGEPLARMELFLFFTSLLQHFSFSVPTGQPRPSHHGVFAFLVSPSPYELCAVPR
PROCEDURE_DETAILS: recombinant CYP inhibition, fluorescence
pIC50: −log10 of the molar value.
READOUT: pIC50

[
  {
    "MOLECULAR_STRING": "CCNC(=O)Nc1nc2c(F)c(-c3cnc(N4CCC(C(=O)O)CC4)nc3)cc(-c3ccccn3)c2s1",
    "pIC50": "< 5.00"
  }
]

The record that follows has no pIC50 shown yet.
[in] # query: pIC50 | item CCNC(=O)Nc1nc2c(F)c(-c3ccc(COP(=O)(O)O)nc3)cc(-c3ccccn3)c2s1 | system: CYP2D6 (Homo sapiens, UniProt P10635)
[out] < 5.00

---

Target or system UniProt P11388; recorded quantity pIC50.
Sequence (P11388 whole entry): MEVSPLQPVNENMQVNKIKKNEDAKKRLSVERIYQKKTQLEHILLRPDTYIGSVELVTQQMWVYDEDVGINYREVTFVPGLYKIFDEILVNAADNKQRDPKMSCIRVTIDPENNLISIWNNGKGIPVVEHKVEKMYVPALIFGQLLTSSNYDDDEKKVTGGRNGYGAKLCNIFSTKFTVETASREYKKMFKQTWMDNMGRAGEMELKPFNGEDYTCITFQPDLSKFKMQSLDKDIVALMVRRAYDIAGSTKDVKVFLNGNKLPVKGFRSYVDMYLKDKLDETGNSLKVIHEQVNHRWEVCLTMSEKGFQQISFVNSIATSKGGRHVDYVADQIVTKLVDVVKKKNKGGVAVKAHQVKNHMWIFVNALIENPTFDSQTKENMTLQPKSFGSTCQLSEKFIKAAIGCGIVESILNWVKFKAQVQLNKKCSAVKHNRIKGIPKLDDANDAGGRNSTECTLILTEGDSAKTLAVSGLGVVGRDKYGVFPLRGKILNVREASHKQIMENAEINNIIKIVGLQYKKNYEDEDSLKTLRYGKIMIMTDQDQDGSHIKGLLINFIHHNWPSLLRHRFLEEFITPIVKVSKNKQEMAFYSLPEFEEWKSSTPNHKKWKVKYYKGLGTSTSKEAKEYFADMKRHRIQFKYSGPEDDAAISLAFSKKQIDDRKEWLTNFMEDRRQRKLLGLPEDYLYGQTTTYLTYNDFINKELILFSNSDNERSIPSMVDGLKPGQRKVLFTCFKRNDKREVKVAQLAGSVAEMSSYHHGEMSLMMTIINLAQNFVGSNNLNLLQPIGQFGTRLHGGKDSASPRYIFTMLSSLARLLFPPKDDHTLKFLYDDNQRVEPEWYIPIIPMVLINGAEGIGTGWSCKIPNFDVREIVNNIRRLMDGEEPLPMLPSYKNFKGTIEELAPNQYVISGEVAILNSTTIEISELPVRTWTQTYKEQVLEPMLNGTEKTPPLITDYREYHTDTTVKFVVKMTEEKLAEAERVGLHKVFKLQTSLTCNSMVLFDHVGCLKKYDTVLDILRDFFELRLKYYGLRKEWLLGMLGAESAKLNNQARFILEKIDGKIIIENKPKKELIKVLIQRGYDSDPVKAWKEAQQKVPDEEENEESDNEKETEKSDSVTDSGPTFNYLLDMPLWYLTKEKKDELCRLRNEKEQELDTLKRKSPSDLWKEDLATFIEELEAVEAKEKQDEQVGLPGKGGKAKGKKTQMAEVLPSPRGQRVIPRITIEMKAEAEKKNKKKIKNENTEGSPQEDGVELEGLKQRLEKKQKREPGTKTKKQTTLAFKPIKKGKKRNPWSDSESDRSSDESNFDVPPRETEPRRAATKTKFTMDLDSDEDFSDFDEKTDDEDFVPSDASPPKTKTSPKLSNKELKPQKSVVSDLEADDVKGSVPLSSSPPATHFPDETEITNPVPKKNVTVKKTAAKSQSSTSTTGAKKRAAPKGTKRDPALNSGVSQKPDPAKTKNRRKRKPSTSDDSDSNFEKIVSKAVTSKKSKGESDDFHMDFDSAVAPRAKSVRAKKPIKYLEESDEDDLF
pIC50: −log10 of the molar value.

[in] Item under review: CCNC(=O)Nc1nc2c(F)c(-c3cnc(N4CCC(C(=O)O)CC4)nc3)cc(-c3ccccn3)c2s1 [RBx 10080758] . Reported pIC50?
[out] < 3.02

[in] Another molecule: CCNC(=O)Nc1nc2c(F)c(-c3ccc(COP(=O)(O)O)nc3)cc(-c3ccccn3)c2s1 [RBx 10115912]
[out] < 3.00

---

TARGET_OF_ASSAY: CYP2C19 (Homo sapiens, UniProt P33261)
Sequence (P33261 whole entry): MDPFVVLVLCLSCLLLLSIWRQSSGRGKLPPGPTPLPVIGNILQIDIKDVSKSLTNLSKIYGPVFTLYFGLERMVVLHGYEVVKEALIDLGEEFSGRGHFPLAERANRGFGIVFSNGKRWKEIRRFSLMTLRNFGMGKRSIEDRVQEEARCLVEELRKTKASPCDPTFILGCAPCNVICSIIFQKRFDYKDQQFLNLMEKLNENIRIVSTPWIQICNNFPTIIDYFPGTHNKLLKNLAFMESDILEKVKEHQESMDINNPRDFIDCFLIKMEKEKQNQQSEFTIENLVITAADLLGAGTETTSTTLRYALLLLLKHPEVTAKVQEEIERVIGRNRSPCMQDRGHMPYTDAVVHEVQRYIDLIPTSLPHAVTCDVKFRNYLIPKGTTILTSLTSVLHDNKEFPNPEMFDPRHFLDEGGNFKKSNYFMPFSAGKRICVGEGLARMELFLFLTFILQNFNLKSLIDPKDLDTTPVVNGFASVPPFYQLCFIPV
PROCEDURE_DETAILS: recombinant CYP inhibition, fluorescence
pIC50: −log10 of the molar value.
READOUT: pIC50

[
  {
    "MOLECULAR_STRING": "CCNC(=O)Nc1nc2c(F)c(-c3ccc(COP(=O)(O)O)nc3)cc(-c3ccccn3)c2s1",
    "pIC50": "< 5.00"
  }
]

The record that follows has no pIC50 shown yet.
[in] Item under review: CCNC(=O)Nc1nc2c(F)c(-c3cnc(N4CCC(C(=O)O)CC4)nc3)cc(-c3ccccn3)c2s1 . Reported pIC50?
[out] < 5.00

---

TARGET_OF_ASSAY: CYP3A4 (Homo sapiens)
Sequence (P08684 2-503): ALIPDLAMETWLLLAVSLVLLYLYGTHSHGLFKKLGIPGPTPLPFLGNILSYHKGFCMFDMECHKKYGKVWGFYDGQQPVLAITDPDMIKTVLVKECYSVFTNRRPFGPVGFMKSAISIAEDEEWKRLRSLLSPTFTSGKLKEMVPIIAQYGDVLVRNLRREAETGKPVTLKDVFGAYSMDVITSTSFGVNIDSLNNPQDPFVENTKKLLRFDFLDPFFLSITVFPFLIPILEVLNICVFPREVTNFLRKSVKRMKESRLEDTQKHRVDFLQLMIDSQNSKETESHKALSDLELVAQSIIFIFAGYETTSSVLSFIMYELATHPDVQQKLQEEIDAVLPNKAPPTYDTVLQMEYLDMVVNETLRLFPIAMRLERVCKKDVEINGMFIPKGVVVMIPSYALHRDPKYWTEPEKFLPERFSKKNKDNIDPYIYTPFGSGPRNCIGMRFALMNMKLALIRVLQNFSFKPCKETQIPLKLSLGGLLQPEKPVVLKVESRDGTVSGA
PROCEDURE_DETAILS: recombinant CYP inhibition, fluorescence
Item-by-item account of IC50

[
  {
    "MOLECULAR_STRING": "CCNC(=O)Nc1nc2c(F)c(-c3cnc(N4CCC(C(=O)O)CC4)nc3)cc(-c3ccccn3)c2s1",
    "IC50": "> 10 µM"
  }
]

The record that follows has no IC50 shown yet.
[in] Item under review: CCNC(=O)Nc1nc2c(F)c(-c3ccc(COP(=O)(O)O)nc3)cc(-c3ccccn3)c2s1 . Reported IC50?
[out] > 10 µM
